All values here come from ChEMBL document CHEMBL2331490.

experiment: Lipophilicity, log k of the compound by HPLC analysis; type: physicochemical
Would you mind telling me the reported log K of each entry?
Give bare numbers.

Known results for compounds:
CC(C)COC(=O)N[C@H](C(=O)N[C@H](C)c1nc2ccc(F)cc2s1)C(C)C 0.7041
CCCOC(=O)N[C@@H](CCC)C(=O)N[C@H](C)c1nc2ccc(F)cc2s1 0.5873
CCC[C@H](NC(=O)OCC)C(=O)N[C@H](C)c1nc2ccc(F)cc2s1 0.4873
CCC[C@H](NC(=O)OCC(Cl)(Cl)Cl)C(=O)N[C@H](C)c1nc2ccc(F)cc2s1 0.8297

Proceeding to the next compound to report its log K.
Item: `CCC[C@H](NC(=O)OCC(F)(F)F)C(=O)N[C@H](C)c1nc2ccc(F)cc2s1` | log K: 0.5825

----------
target: Cholinesterase (Equus caballus)
Sequence (P81908 whole entry): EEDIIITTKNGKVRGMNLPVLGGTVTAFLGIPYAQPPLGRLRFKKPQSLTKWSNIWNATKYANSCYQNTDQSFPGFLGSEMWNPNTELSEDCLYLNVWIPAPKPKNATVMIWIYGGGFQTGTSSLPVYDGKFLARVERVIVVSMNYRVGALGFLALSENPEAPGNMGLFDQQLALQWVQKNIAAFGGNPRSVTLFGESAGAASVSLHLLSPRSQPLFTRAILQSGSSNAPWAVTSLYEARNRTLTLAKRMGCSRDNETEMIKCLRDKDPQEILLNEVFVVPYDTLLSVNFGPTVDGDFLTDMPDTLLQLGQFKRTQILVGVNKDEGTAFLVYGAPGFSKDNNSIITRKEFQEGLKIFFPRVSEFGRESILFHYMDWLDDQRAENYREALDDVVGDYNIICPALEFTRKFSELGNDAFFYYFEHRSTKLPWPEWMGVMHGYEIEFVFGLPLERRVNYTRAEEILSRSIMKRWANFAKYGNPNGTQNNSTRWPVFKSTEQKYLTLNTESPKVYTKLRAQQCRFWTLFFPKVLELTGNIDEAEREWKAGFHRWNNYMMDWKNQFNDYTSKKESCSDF
Rule: IC50 below 40 µM gives true (1), anything at or above gives false (0).

CC(C)[C@H](NC(=O)OCC(Cl)(Cl)Cl)C(=O)N[C@H](C)c1nc2ccc(F)cc2s1 true (1)
CCC[C@H](NC(=O)OCC(F)(F)F)C(=O)N[C@H](C)c1nc2ccc(F)cc2s1 false (0)
CCC[C@H](NC(=O)OCC)C(=O)N[C@H](C)c1nc2ccc(F)cc2s1 true (1)
CC(C)[C@H](NC(=O)OCC(F)(F)C(F)(F)C(F)(F)F)C(=O)N[C@H](C)c1nc2ccc(F)cc2s1 false (0)
CC(C)[C@H](NC(=O)OCC(F)(F)C(F)F)C(=O)N[C@H](C)c1nc2ccc(F)cc2s1 true (1)
CCC[C@H](NC(=O)OCC(C)C)C(=O)N[C@H](C)c1nc2ccc(F)cc2s1 true (1)
CCC[C@H](NC(=O)OC(C)C)C(=O)N[C@H](C)c1nc2ccc(F)cc2s1 true (1)
CCC[C@H](NC(=O)OC)C(=O)N[C@H](C)c1nc2ccc(F)cc2s1 true (1)
CC(C)[C@H](NC(=O)OCCCl)C(=O)N[C@H](C)c1nc2ccc(F)cc2s1 false (0)
COC(=O)N[C@H](C(=O)N[C@H](C)c1nc2ccc(F)cc2s1)C(C)C true (1)

Exercise: Input `CCC[C@H](NC(=O)OCCCl)C(=O)N[C@H](C)c1nc2ccc(F)cc2s1` ; condition: IC50 strictly below 40 µM. Does it hold?
Solution: false (0)

Exercise: Would you kindly verify if IC50 of `CC(C)[C@H](NC(=O)OCC(F)(F)F)C(=O)N[C@H](C)c1nc2ccc(F)cc2s1` is strictly less than 40 µM?
Solution: false (0)

Exercise: Report whether reported IC50 is lower than 40 µM (strictly) for `CCC[C@H](NC(=O)OCC(F)(F)C(F)(F)C(F)(F)F)C(=O)N[C@H](C)c1nc2ccc(F)cc2s1`
Solution: false (0)

Exercise: Would you kindly verify if IC50 of `CCCCOC(=O)N[C@H](C(=O)N[C@H](C)c1nc2ccc(F)cc2s1)C(C)C` is strictly less than 40 µM?
Solution: false (0)

Exercise: Just wondering, is IC50 of `CCOC(=O)N[C@H](C(=O)N[C@H](C)c1nc2ccc(F)cc2s1)C(C)C` below 40 µM?
Solution: true (1)

Exercise: # TODO verify IC50 < 40 µM strictly for this molecule: `CCCCOC(=O)N[C@@H](CCC)C(=O)N[C@H](C)c1nc2ccc(F)cc2s1`
Solution: true (1)

Exercise: Regarding `CCCOC(=O)N[C@@H](CCC)C(=O)N[C@H](C)c1nc2ccc(F)cc2s1` , kindly confirm whether its IC50 is beneath 40 µM.
Solution: true (1)

Exercise: Criterion: IC50 strictly below 40 µM. Is it met by `CCCOC(=O)N[C@H](C(=O)N[C@H](C)c1nc2ccc(F)cc2s1)C(C)C` ?
Solution: false (0)

Exercise: Could you please tell me whether IC50 recorded for `CCC[C@H](NC(=O)OCC(F)(F)C(F)F)C(=O)N[C@H](C)c1nc2ccc(F)cc2s1` is less than 40 µM?
Solution: false (0)

Exercise: Regarding `CCC[C@H](NC(=O)OCC(Cl)(Cl)Cl)C(=O)N[C@H](C)c1nc2ccc(F)cc2s1` , kindly confirm whether its IC50 is beneath 40 µM.
Solution: false (0)
